Target: PIK3CA (human) (UniProt P42336)
Sequence (P42336 whole entry, looked up): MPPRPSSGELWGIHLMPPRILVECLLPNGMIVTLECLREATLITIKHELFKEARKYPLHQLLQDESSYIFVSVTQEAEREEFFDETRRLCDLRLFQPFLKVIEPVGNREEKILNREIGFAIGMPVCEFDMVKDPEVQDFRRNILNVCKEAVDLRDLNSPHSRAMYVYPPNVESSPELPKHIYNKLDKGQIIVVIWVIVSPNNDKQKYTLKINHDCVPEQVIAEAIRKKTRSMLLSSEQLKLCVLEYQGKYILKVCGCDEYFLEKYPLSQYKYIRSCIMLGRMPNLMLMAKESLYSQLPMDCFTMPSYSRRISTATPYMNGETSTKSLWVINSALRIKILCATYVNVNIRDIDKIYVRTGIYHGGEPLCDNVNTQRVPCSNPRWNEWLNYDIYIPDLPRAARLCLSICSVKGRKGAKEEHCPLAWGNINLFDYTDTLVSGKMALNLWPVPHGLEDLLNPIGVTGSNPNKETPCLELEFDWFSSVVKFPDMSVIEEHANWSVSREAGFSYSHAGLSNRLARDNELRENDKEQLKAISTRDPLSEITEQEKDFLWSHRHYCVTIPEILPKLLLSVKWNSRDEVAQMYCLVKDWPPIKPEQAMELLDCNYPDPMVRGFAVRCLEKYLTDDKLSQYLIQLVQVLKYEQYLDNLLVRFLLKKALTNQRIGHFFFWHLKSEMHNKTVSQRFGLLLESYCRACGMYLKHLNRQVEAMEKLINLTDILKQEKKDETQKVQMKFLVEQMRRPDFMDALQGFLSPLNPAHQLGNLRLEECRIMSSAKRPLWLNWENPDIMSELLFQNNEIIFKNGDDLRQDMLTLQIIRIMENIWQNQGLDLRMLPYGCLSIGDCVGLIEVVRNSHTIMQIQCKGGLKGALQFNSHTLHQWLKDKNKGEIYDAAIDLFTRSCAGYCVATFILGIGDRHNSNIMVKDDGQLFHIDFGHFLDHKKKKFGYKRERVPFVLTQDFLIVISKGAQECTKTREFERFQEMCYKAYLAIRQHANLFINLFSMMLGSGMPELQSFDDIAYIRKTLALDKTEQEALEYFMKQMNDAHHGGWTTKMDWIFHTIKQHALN
Assay: Enzyme Assay
endpoint: IC50

Please review the entries below; each comes with its answer.
Entry Nc1nc(N2CCC[C@H]2c2nc3cc(F)cc(F)c3c(=O)n2-c2ccccc2)c2nc[nH]c2n1 : reported IC50 = ? > 10 µM

Next up: N#Cc1c(N)ncnc1N1C[C@@H](O)C[C@H]1c1nc2cccc(F)c2c(=O)n1-c1ccccc1 > 10 µM

Now the compound Cc1nc(N)c(C#N)c(N2CCC[C@H]2c2nc3cccc(C(F)(F)F)c3c(=O)n2-c2ccccc2)n1 > 10 µM

// next entry
Which IC50 is listed for N#Cc1c(N)ncnc1N1CCC[C@H]1c1nc2cc(F)cc(F)c2c(=O)n1-c1ccccc1 ? > 10 µM
